- Organism: Rattus norvegicus
- ASSAY_INFO: DrugMatrix - Regimen: Daily Repeat
- Assay type: toxicity, organism-based, Sprague-Dawley
- Parameters: regimen Daily Repeat, gender Male, age 6-8 weeks
- ASSAY_SETUP: in vivo, po, 0 mg/kg, 72 h, tissue Blood, route oral GAVAGE, dose level Control, time 3 day, vehicle .5 % CMC
Provide the reported LYMPHOCYTE of each item.
Please give a number only; it is taken to be in %.

LYMPHOCYTE for Cc1cnc(C(=O)NCCc2ccc(S(=O)(=O)NC(=O)NC3CCCCC3)cc2)cn1 [GLIPIZIDE] is 89.83

LYMPHOCYTE reported for this compound O=c1cc(-c2ccccc2)oc2ccc3ccccc3c12 : 80.78

Measured LYMPHOCYTE, C[C@@H](O)[C@H]1C(=O)N2C(C(=O)O)=C(S[C@@H]3CN[C@H](C(=O)N(C)C)C3)[C@H](C)[C@H]12 : 89.33

Consider CC(=O)O[C@]1(C(C)=O)CC[C@H]2[C@@H]3C=C(Cl)C4=CC(=O)[C@@H]5C[C@@H]5[C@]4(C)[C@H]3CC[C@@]21C [CYPROTERONE ACETATE] . Its measured LYMPHOCYTE is 89.83

Data origin, for the record: ChEMBL document CHEMBL3885881
